System: HCT-15 colon
experimentSummary: NCI-60 one-dose screen, 48 h
statedConditions: 10 µM unless noted
The panel holds about 83,000 compounds, 20% with a hit somewhere; the sample as a whole holds those more often. The source made the active and inactive calls. How the source made its calls: active means growth percent below 10; inactive means the rest.
Just give me one of these, please: active, inactive

Query: Fill in: this test's call for O=[N+]([O-])c1cccc(-c2nnc3c(/C=C/c4ccc(F)cc4)nc4ccccc4n23)c1 is ___
Response: inactive

Query: Fill in: this test's call for O=C1NC(=NC23CC4CC(CC(C4)C2)C3)N/C1=C\c1ccc2ncccc2c1 is ___
Response: active

Query: Fill in: this test's call for COc1cc(C2C(C(=O)OCc3ccccc3)=C(C)Nc3nc4ccccc4n32)cc(OC)c1OC (centres undefined) is ___
Response: inactive

Query: Fill in: this test's call for COC(=O)c1c(C(=O)OC)c2c3ccccc3c3ccccc3n2c1C(=O)C(C)(C)C is ___
Response: inactive

Query: Fill in: this test's call for O=C(N/N=C/c1ccc(Cl)o1)c1[nH]c2ccc(Br)cc2c1-c1ccccc1 is ___
Response: active

Query: Fill in: this test's call for C/C(=N\Nc1ccc(C(=O)O)cc1)c1cnn(-c2cc(=O)[nH]c3ccc(C)cc23)c1C is ___
Response: inactive

Query: Fill in: this test's call for Cn1cc(-c2cc(N)n3nc(-c4c[nH]c5ccc(F)cc45)cc3n2)c2cc(Br)cnc21 is ___
Response: active

Query: Fill in: this test's call for COc1ccc(/C=C/C(=O)c2ccc(OC)c(S(N)(=O)=O)c2)c(C(F)(F)F)c1 is ___
Response: active

Query: Fill in: this test's call for CCOc1ccc2[nH]c(=O)c(C(c3nnnn3CC3CCCO3)N3CCN(Cc4ccccc4)CC3)cc2c1 (centres undefined) is ___
Response: inactive
